Origin of measurements: patent US11242351B2

The following molecules each carry a recorded Kd for BCL6 BTB domain (biotin-thrombin-BCL6 amino acids 1-129) (Homo sapiens (Human)).
I only need the number, in nM, no unit after it.

Please review the entries below; each comes with its answer.
[[record]]
molecule = "CC1Cc2nc3c(c(-c4cc(C(N)=O)c(O)c(F)c4F)cn3CC(=O)Nc3cc(N4CCN(C)C[C@@H]4C)nc(F)c3Cl)c(=O)n2C1 (stereo partly drawn) [I-63]"
value_unit = "nM"
readout_number = 10.2

[[record]]
molecule = "COc1c(-c2cn(CC(=O)Nc3cc(N4CCOC[C@@H]4C)ncc3Cl)c3nc4n(c(=O)c23)CCC4)cc(C(N)=O)c(O)c1OC [I-69]"
value_unit = "nM"
readout_number = 294


Now, please, on to the next molecule.
Qu. Provide value of Kd for this record tested with BCL6 BTB domain (biotin-thrombin-BCL6 amino acids 1-129) (Homo sapiens (Human)): CCN1CCN(c2cc(NC(=O)Cn3cc(-c4cc(F)c(O)c(C(N)=O)c4)c4c(=O)n5c(nc43)CCC5)c(Cl)c(F)n2)[C@@H](C)C1 [I-81]
Ans. 1.55

###

assay.target: BCL6 BTB domain (biotin-thrombin-BCL6 amino acids 1-129) (Homo sapiens (Human), UniProt P41182)
Quick reference for pKd among some molecules
Just so you know, pKd here is -log10 of the concentration in molar units; reply with that number alone.

[[record]]
structure_as_smiles = "C[C@H]1CN(CC(CO)CO)CCN1c1cc(NC(=O)Cn2cc(-c3cc(C(N)=O)c(O)c(F)c3F)c3c(=O)n4c(nc32)CCC4)c(Cl)c(F)n1"
readout_number = 8.50

[[record]]
structure_as_smiles = "NC(=O)c1cc(-c2cn(CC(=O)Nc3cc(N4CCCC4)nc(F)c3Cl)c3nc4n(c(=O)c23)CCC4)cc(F)c1O"
readout_number = 8.52

[[record]]
structure_as_smiles = "COc1c(O)c(C(N)=O)cc(-c2cn(CC(=O)Nc3cc(N4CCOC[C@@H]4C)ncc3Cl)c3nc4n(c(=O)c23)CCC4)c1F"
readout_number = 7.46


Qu. Sample C[C@H]1CN(C)CCN1c1cc(NC(=O)Cn2cc(-c3cc(C(N)=O)c(O)c(F)c3F)c3c(=O)n4c(nc32)CCC4)c(Cl)cn1 — what was its pKd?
Ans. 7.63

Qu. Form field: reported pKd of COCCN1CCN(c2cc(NC(=O)Cn3cc(-c4cc(F)c(O)c(C(N)=O)c4)c4c(=O)n5c(nc43)CCC5)c(Cl)c(F)n2)[C@@H](C)C1
Ans. 8.85

Qu. Report pKd for NC(=O)c1cc(-c2cn(CC(=O)Nc3cc(N4CCOCC4)c(F)cc3Cl)c3nc4n(c(=O)c23)CCC4)c(F)c(F)c1O please.
Ans. 6.97

###

assay.target: BCL6 BTB domain (biotin-thrombin-BCL6 amino acids 1-129) (Homo sapiens (Human), UniProt P41182)
Doc: threshold 20 nM (exclusive). Items with Kd beneath it return y; others return n.

Worked set:
[[record]]
compound = "COCCN1CCN(c2cc(NC(=O)Cn3cc(-c4cc(Cl)c(O)c(C(N)=O)c4)c4c(=O)n5c(nc43)CCC5)c(Cl)c(F)n2)[C@@H](C)C1 [I-75]"
class_label = "y"

[[record]]
compound = "C[C@H]1CN(C)CCN1c1cc(NC(=O)Cn2cc(-c3cc(C(N)=O)c(O)c(Cl)c3F)c3c(=O)n4c(nc32)CCC4)c(Cl)c(F)n1 [I-10]"
class_label = "n"


# evaluate next
Qu. Item C[C@H]1CN(C)CCN1c1cc(NC(=O)Cn2cc(-c3cc(C(N)=O)c(O)c4c3OCO4)c3c(=O)n4c(nc32)COCC4)c(Cl)c(F)n1 [I-94] : Kd beneath 20 nM, strictly?
Ans. y

###

The following compounds are shown together with reported pKd values.
assay.target: BCL6 BTB domain (biotin-thrombin-BCL6 amino acids 1-129) (Homo sapiens (Human), UniProt P41182)
Please note pKd is a logarithmic value: minus log10 of concentration in mol/L. Answer with that number alone.

Please review the entries below; each comes with its answer.
[[record]]
compound = "CC1Cc2nc3c(c(-c4cc(F)c(O)c(C(N)=O)c4)cn3CC(=O)Nc3cc(N4CCN(C)C[C@@H]4C)nc(F)c3Cl)c(=O)n2C1 (stereo partly drawn)"
measured_attribute = "pKd"
readout_number = 8.69

[[record]]
compound = "CN1C[C@H]2CC[C@@H](C1)N2c1cc(NC(=O)Cn2cc(-c3cc(C(N)=O)c(O)c(F)c3F)c3c(=O)n4c(nc32)CCC4)c(Cl)cn1"
measured_attribute = "pKd"
readout_number = 7.41


// next entry
Qu. Which pKd reading was recorded for the compound C[C@H]1CNCCN1c1cc(NC(=O)Cn2cc(-c3cc(C(N)=O)c(O)c(F)c3F)c3c(=O)n4c(nc32)CCC4)c(Cl)c(F)n1 ?
Ans. 8.23

###

assay.target: BCL6 BTB domain (biotin-thrombin-BCL6 amino acids 1-129) (Homo sapiens (Human), UniProt P41182)
Kd values, listed per item
Return type: number; implicit unit nM.

Look over these answered cases.
[[record]]
compound = "C[C@H]1CN(C)CCN1c1cc(NC(=O)Cn2cc(-c3cc(C#N)c(O)c4c3OCO4)c3c(=O)n4c(nc32)CCC4)c(Cl)c(F)n1 [I-67]"
measured_attribute = "Kd"
value_unit = "nM"
readout_number = 6.72

[[record]]
compound = "COc1c(-c2cn(CC(=O)Nc3cc(N4CCN(C5COC5)C[C@@H]4C)nc(F)c3Cl)c3nc4n(c(=O)c23)CCC4)cc(C(N)=O)c(O)c1OC [I-72]"
measured_attribute = "Kd"
value_unit = "nM"
readout_number = 85.1

[[record]]
compound = "C[C@H]1CN(C)CCN1c1cc(NC(=O)Cn2cc(-c3cc(F)c(O)c(C(N)=O)c3)c3c(=O)n4c(nc32)CC(C)(C)C4)c(Cl)c(F)n1 [I-79]"
measured_attribute = "Kd"
value_unit = "nM"
readout_number = 2.79

[[record]]
compound = "CC1Cc2nc3c(c(-c4cc(Cl)c(O)c(C(N)=O)c4)cn3CC(=O)Nc3cc(N4CCOC[C@@H]4C)nc(F)c3Cl)c(=O)n2C1 (stereo partly drawn) [I-66]"
measured_attribute = "Kd"
value_unit = "nM"
readout_number = 15.9

[[record]]
compound = "C[C@@H]1CN(C)C[C@H](C)N1c1cc(NC(=O)Cn2cc(-c3cc(C(N)=O)c(O)c(F)c3F)c3c(=O)n4c(nc32)CCC4)c(Cl)c(F)n1 [I-97]"
measured_attribute = "Kd"
value_unit = "nM"
readout_number = 11.9


Qu. Any idea what Kd was measured for C[C@H]1COCCN1c1cc(NC(=O)Cn2cc(-c3cc(C(N)=O)c(O)c(F)c3F)c3c(=O)n4c(nc32)CC(C)(C)C4)c(Cl)c(F)n1 [I-58] ?
Ans. 28.7

###

assay.target: BCL6 BTB domain (biotin-thrombin-BCL6 amino acids 1-129) (Homo sapiens (Human), UniProt P41182)
Known Kd of a selection of molecules
Write the numeric value and follow it with the unit.

Use the examples below as a reference point.
[[record]]
molecule = "NC(=O)c1cc(-c2cn(CC(=O)Nc3cc(N4CCCC4)nc(F)c3Cl)c3nc4n(c(=O)c23)CCC4)cc(Cl)c1O"
measured_attribute = "Kd"
result = "14.8 nM"

[[record]]
molecule = "CC1Cc2nc3c(c(-c4cc(Cl)c(O)c(C(N)=O)c4)cn3CC(=O)Nc3cc(N4CCN(C)C[C@@H]4C)nc(F)c3Cl)c(=O)n2C1 (stereo partly drawn)"
measured_attribute = "Kd"
result = "6.28 nM"


Next item in the queue.
Qu. Would you mind telling me what Kd value was observed for CCN1CCN(c2cc(NC(=O)Cn3cc(-c4cc(C(N)=O)c(O)c5c4OCO5)c4c(=O)n5c(nc43)CCC5)c(Cl)c(F)n2)[C@@H](C)C1 ?
Ans. 0.81 nM

###

assay.target: BCL6 BTB domain (biotin-thrombin-BCL6 amino acids 1-129) (Homo sapiens (Human))
measured.attribute: pKd
Lab note: report pKd as minus log10 of the concentration in molar units, number only.

[[record]]
structure_as_smiles = "C[C@H]1CN(C2COC2)CCN1c1cc(NC(=O)Cn2cc(-c3cc(C(N)=O)c(O)c(Cl)c3F)c3c(=O)n4c(nc32)CCC4)c(Cl)cn1"
measured_attribute = "pKd"
readout_number = 7.24

[[record]]
structure_as_smiles = "C[C@H]1CN(C)C[C@H](C)N1c1cc(NC(=O)Cn2cc(-c3cc(F)c(O)c(C(N)=O)c3)c3c(=O)n4c(nc32)CCC4)c(Cl)c(F)n1"
measured_attribute = "pKd"
readout_number = 7.95


Qu. Recall the recorded pKd for C[C@H]1CN(C2COC2)CCN1c1cc(NC(=O)Cn2cc(-c3cc(C(N)=O)c(O)c(F)c3F)c3c(=O)n4c(nc32)CCCCC4)c(Cl)c(F)n1 with BCL6 BTB domain (biotin-thrombin-BCL6 amino acids 1-129) (Homo sapiens (Human)) and state it.
Ans. 7.37
